test system: 786-O; assay: Euclidean distance of Cell Painting phenotypic profile (signed KS, 77 features) to DMSO centroid (dimensionless distance); 5 or 10 uM (library dependent); higher = stronger phenotypic change vs DMSO (phenoactivity); conditions: 48 h
Counter-ions that a name gives are not always drawn.
Ranges used to classify Euclidean distance: low range = under 1, mid range = from 1 up to 2, high range = 2 and over

State the class of the molecule shown: CN(C)CCCN1c2ccccc2Sc2ccc(Cl)cc21 [Chlorpromazine]
mid range

State the class of the molecule shown: COc1ccc(-c2cc(=O)c3c(O)c(OC)c(O)cc3o2)cc1OC [Eupatilin]
mid range

State the class of the molecule shown: CN(C)CC[C@H](CSc1ccccc1)Nc1ccc(S(=O)(=O)NC(=O)c2ccc(N3CCN(Cc4ccccc4-c4ccc(Cl)cc4)CC3)cc2)cc1[N+](=O)[O-]
low range

State the class of the molecule shown: C=CC(=O)Nc1cc2c(Nc3ccc(F)c(Cl)c3)ncnc2cc1OCCCN1CCOCC1 [Canertinib (CI-1033)]
mid range

State the class of the molecule shown: CC(C)(C)c1cc(NC(=O)Nc2ccc(-c3cn4c(n3)sc3cc(OCCN5CCOCC5)ccc34)cc2)no1 [Quizartinib (AC220)]
high range

State the class of the molecule shown: C[C@H](CCC(=O)O)[C@H]1CC[C@H]2[C@@H]3C[C@H](O)[C@@H]4C[C@H](O)CC[C@]4(C)[C@H]3CC[C@]12C [Hyodeoxycholic acid (HDCA)]
mid range

State the class of the molecule shown: CC(C)(C)c1nc(-c2cccc(NS(=O)(=O)c3c(F)cccc3F)c2F)c(-c2ccnc(N)n2)s1
mid range

State the class of the molecule shown: COc1cccc2cc(-c3nc([C@H]4CC[C@H](C(=O)O)CC4)n4ncnc(N)c34)[nH]c12
high range

State the class of the molecule shown: O=C(O)CCC(=O)c1ccc(-c2ccccc2)cc1 [Fenbufen]
low range

State the class of the molecule shown: CC(C)c1ccc2oc3nc(N)c(C(=O)O)cc3c(=O)c2c1 [Amlexanox]
low range

State the class of the molecule shown: CN(C)c1ccc(O)c2c1C[C@H]1C[C@H]3[C@H](N(C)C)C(O)=C(C(N)=O)C(=O)[C@@]3(O)C(O)=C1C2=O [Minocycline HCl]
mid range

State the class of the molecule shown: N=C(N)N/N=C/c1c(Cl)cccc1Cl [Guanabenz Acetate]
mid range

State the class of the molecule shown: C=CC(=O)Nc1cc(Nc2nccc(-c3cn(C4CC4)c4ccccc34)n2)c(OC)cc1N(C)CCN(C)C
high range

State the class of the molecule shown: CN(Cc1cc(Br)cc(Br)c1N)C1CCCCC1 [Bromhexine]
low range

State the class of the molecule shown: N#CC1(c2ccc(NC(=O)c3cccnc3NCc3ccncc3)cc2)CCCC1 [Apatinib]
low range

State the class of the molecule shown: C[C@]12CCC3=C4CCC(=O)C=C4CC[C@H]3[C@@H]1CC[C@@]2(O)CC#N [Dienogest]
mid range

State the class of the molecule shown: NC(=O)c1cccc(-c2cccc(OC(=O)NC3CCCCC3)c2)c1
low range
